System: SN12C renal
protocol text: NCI-60 one-dose screen, 48 h
reported conditions: 10 µM unless noted
This is part of a sample that, as a whole, favours compounds with a hit. Of some 83,000 tested, about 20% had one in any assay. The source made the active and inactive calls. The calls were made as follows: active = growth percent below 10; inactive = the rest.
The reply should name one outcome from active, inactive

Here are 2 compounds together with their reported answers.
Check the results log: what was the call for COc1ccc(C2=C(CN)C(O)NC(=NCC(=O)c3ccc4ccccc4c3)N2)cc1 (stereo not given) ?
inactive

Check the results log: what was the call for COc1ccc(/C=C2/C(=O)N=C3N2NC(c2ccccc2)=CN3c2ccccc2)cc1 ?
inactive

***
Check the results log: what was the call for O=c1ccc2nc(-c3ccccn3)nn(-c3ccccc3)c-2c1 ?
inactive

Check the results log: what was the call for O=C1OCC2=C1C(c1cccc([N+](=O)[O-])c1)c1cc3c(cc1N2CCO)CCC3 (stereo not given) ?
inactive

Check the results log: what was the call for CC(C)(C)c1cc(C(C)(C)c2ccccc2)cc(Cc2cc(C(C)(C)c3ccccc3)cc(C(C)(C)C)c2O)c1O ?
inactive

Check the results log: what was the call for CN1Cn2c(ccc2C(F)(F)F)C(=O)CS1(=O)=O ?
inactive

Check the results log: what was the call for Cn1c(=O)c2c(nc(Nc3cc(=O)[nH]c(=O)[nH]3)n2Cc2ccccc2)n(C)c1=O ?
inactive

Check the results log: what was the call for Cc1ccc(-c2nc3nc(-c4ccc(Cl)cc4)nc(N4CCCNCC4)c3o2)cc1 ?
active

Check the results log: what was the call for CCCCCCCCn1ccc2cc(NC(=O)CN3CCN(c4nc(C)cc(N5CCCCC5)n4)CC3)ccc21 ?
inactive

Check the results log: what was the call for Cc1n(Cc2ccc3ccccc3c2)c(Cl)c(Cl)[n+]1Cc1ccc2ccccc2c1 ?
inactive

Check the results log: what was the call for COC(=O)c1nc(-c2ccccc2)oc1S(=O)(=O)N(C)CCO ?
inactive

Check the results log: what was the call for CCN(C(=O)N1CCN(c2cc3c(cc2F)c(=O)c(C(=O)O)cn3C2CC2)CC1)c1nc(-c2ccccc2)cs1 ?
active

Check the results log: what was the call for Cc1oc2c(Cc3ccc(NC(=O)c4ccc(Cl)cc4)cc3)ncnc2c1C(=O)NO ?
inactive

Check the results log: what was the call for CCCCC#Cc1c(/C=C(\CCCC)SCC)n(C)c(=O)[nH]c1=O ?
inactive

Check the results log: what was the call for Cc1cccc(Cc2cnc(NC(=O)CCCOc3ccc(Cl)cc3)s2)c1 ?
inactive

Check the results log: what was the call for C=C[C@]1(C)C=C2CC[C@@H]3C(C)(C)C(=O)CC[C@@]3(C)[C@@H]2CC1 ?
inactive

====

The reader will find reported growth values listed item by item below.
Test system: HCT-15 colon
protocol text: NCI-60 one-dose screen, 48 h (100 = growth as untreated, 0 = no growth, -100 = all killed)
reported conditions: 10 µM unless noted
This is part of a sample that, as a whole, favours compounds with a hit. Of some 83,000 tested, about 20% had one in any assay.
Response body: numeric value in %, unit text excluded.

Please review the following examples before continuing.
What does the data say about its growth? Entry: Cc1ccc(/C=C(\C#N)c2cc3ccccc3[nH]2)cc1
27.1

What does the data say about its growth? Entry: CCCCCCCCCCCCCCCCCCOc1cccc(CC(=O)OCC[N+](CC)(CC)CC)c1
81.3

What does the data say about its growth? Entry: Cc1cc(N2CCCCC2)nc(NCc2cc(Nc3ccnc4cc(Cl)ccc34)ccc2F)n1
-55.1

***
What does the data say about its growth? Entry: Cc1ccc(Nc2nc(-c3cc(O)c(C)c(C)c3O)cs2)cc1
76.7

What does the data say about its growth? Entry: O=C1CCc2c(sc3[nH]c(=S)n(Cc4ccc(Cl)cc4)c(=O)c23)C1
-13.5
